TARGET SYSTEM: GST tagged LXRalpha LBD (ligand binding domain) (Homo sapiens, UniProt Q13133)
Construct: purchased Invitrogen pv4655
Sequence (Q13133 209-447 limits assumed): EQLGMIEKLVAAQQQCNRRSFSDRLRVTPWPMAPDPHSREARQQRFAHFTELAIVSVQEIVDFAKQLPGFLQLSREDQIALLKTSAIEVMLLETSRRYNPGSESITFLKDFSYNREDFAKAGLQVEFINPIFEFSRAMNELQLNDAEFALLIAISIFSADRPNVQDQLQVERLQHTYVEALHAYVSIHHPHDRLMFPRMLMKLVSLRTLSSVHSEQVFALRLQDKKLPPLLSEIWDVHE
TEST SUMMARY: LanthaScreen TR-FRET Liver X Receptor Coactivator Assay, LXR alpha-LBD (co-activator recruitment; IP and % Emax relative to T0901317)
Format: biochemical
CONDITION: Inflection Point of co-activator recruitment, LXR alpha-LBD, TR-FRET
MEASUREMENT NAME: LXR alpha IP (nM)

// below: answered compounds
COMPOUND	LXR alpha IP (nM)
CC(C)NC(=O)c1ccc(N2CCC3(CC2)C[C@H]3CCN(C)C(=O)[C@](O)(c2ccccc2)C(F)(F)F)cc1Cl	No IP
CN(C)C(=O)c1ccc(N2CCC(CCCN(C)C(=O)C(O)C(F)(F)F)CC2)nc1Cl (stereo not shown)	No IP
CC(C)[C@@]1(C(=O)N(C)CCCC2CCN(c3ccc(C(=O)N(C)C)c(Cl)n3)CC2)CCCO1	No IP
CN[C@@](C(=O)N(C)CCCC1CCN(c2ccc(C(=O)N(C)C)c(Cl)n2)CC1)(c1cccc(OC)c1)C(F)(F)F	No IP
CN(C)C(=O)c1ccc(N2CCC([C@@H]3C[C@H]3CN(C)C(=O)[C@](O)(c3ccccc3)C(F)(F)F)CC2)cc1Cl	No IP
COc1cccc([C@@](O)(C(=O)N(C)CCCC2CCN(c3ccc(C(=O)NC(C)C)c(Cl)n3)CC2)C(F)(F)F)c1	No IP

Query compound follows.
Request: Requested read-out: LXR alpha IP (nM). Entry: "CN(C)C(=O)c1ccc(N2CCC(CCCN(C)C(=O)[C@@](O)(c3cccc(C4CC4)c3)C(F)(F)F)CC2)nc1Cl"
Result: No IP

----------
TARGET SYSTEM: GST tagged LXRalpha LBD (ligand binding domain) (Homo sapiens)
Construct: purchased Invitrogen pv4655
TEST SUMMARY: LanthaScreen TR-FRET Liver X Receptor Coactivator Assay, LXR alpha-LBD (co-activator recruitment; IP and % Emax relative to T0901317)
Format: biochemical
CONDITION: efficacy at max dose in relation to reference T0901317, LXR alpha-LBD; read-out: LXR alpha actiivty at max dose (%)
MEASUREMENT NAME: Emax (%)

MOLECULE	TARGET SYSTEM	Emax / %
CNC(=O)c1ccc(N2CCC3(CC2)C[C@@H]3CCN(C)C(=O)[C@](O)(c2cccc(OC)c2)C(F)(F)F)cc1Cl	GST tagged LXRalpha LBD (ligand binding domain) (Homo sapiens)	33
COc1cccc([C@@](O)(C(=O)N(C)CCC2CC3(CCN(c4ccc(C(=O)NC5CC5)c(Cl)n4)CC3)C2)C(F)(F)F)c1	GST tagged LXRalpha LBD (ligand binding domain) (Homo sapiens)	1

I: CC(C)[C@](O)(C(=O)N(C)CCCC1CCN(c2ccc(C(=O)N(C)C)c(Cl)n2)CC1)C(F)(F)F
II: CN(C)C(=O)c1ccc(N2CCC3(CC2)CC3CCN(C)C(=O)[C@](O)(c2cccc(OC(F)(F)F)c2)C(F)(F)F)cc1Cl (stereo in doubt)
III: CNC(=O)c1ccc(N2CCC3(CC2)CC(CCN(C)C(=O)[C@](O)(c2cccc(OC)c2)C(F)(F)F)C3)nc1Cl
IV: CC(C)N(C)C(=O)c1ccc(N2CCC3(CC2)C[C@H]3CCN(C)C(=O)[C@](O)(c2ccccc2)C(F)(F)F)cc1Cl
V: COc1cccc([C@@](O)(C(=O)N(C)CCCC2CCN(c3ccc(C(=O)N4C(C)CCC4C)c(Cl)n3)CC2)C(F)(F)F)c1 (stereo partly drawn)
Request: Rank the 5 molecules: largest Emax first, smallest last. Form entry: labels listed in requested order.
Result: I, II, IV, III, V
(I: 52%, II: 26%, IV: 5%, III: 1%, V: 0%)

I: CN(C)C(=O)c1ccc(N2CCC([C@@H]3C[C@H]3CNC(=O)[C@@](O)(c3ccccc3)C(F)(F)F)CC2)nc1Cl
II: CN(CC[C@@H]1CC12CCN(c1ccc(C(=O)NC3CC3)c(Cl)c1)CC2)C(=O)[C@](O)(c1ccccc1)C(F)(F)F
Request: Given the listed items, does I or II have the lesser reported Emax? Choose, then provide that item's label.
Result: I

----------
TARGET SYSTEM: GST tagged LXRalpha LBD (ligand binding domain) (Homo sapiens)
TEST SUMMARY: LanthaScreen TR-FRET Liver X Receptor Coactivator Assay, LXR alpha-LBD (co-activator recruitment; IP and % Emax relative to T0901317)
CONDITION: Inflection Point of co-activator recruitment, LXR alpha-LBD, TR-FRET
pEC50: −log10 of the molar value.
MEASUREMENT NAME: pEC50

// below: answered compounds
COMPOUND	MEASUREMENT NAME	NUMBER
CN(C)C(=O)c1ccc(N2CCC(CCCNC(=O)[C@@](O)(c3ccccc3)C(F)(F)F)CC2)nc1Cl	pEC50	5.64
COc1cccc([C@@](O)(C(=O)N(C)CCC2CC23CCN(c2ccc(C(=O)NC(C)C)c(Cl)n2)CC3)C(F)(F)F)c1 (stereo in doubt)	pEC50	6.16
CC(C)[C@]1(C(=O)N(C)CCCC2CCN(c3ccc(C(=O)N(C)C)c(Cl)n3)CC2)CCCO1	pEC50	4.76
CN(C)C(=O)c1ccc(N2CCC(CCCN(C)C(=O)[C@@](O)(c3ccccc3)C3CC3)CC2)nc1Cl	pEC50	5.47

A: CN(C)C(=O)c1ccc(N2CCC(CCCNC(=O)C(O)(c3ccccc3)C(F)(F)F)CC2)nc1Cl (stereo not shown)
B: CN(C)C(=O)c1ccc(N2CCC(CCCNC(=O)C(O)(c3ccccc3)C(F)(F)C(F)(F)F)CC2)cc1Cl (stereo not shown)
C: COc1cccc([C@@](O)(C(=O)N(C)CC[C@H]2CC23CCN(c2ccc(C(=O)N(C)C)c(Cl)c2)CC3)C(F)(F)F)c1
Request: Order the entries by their reported pEC50, beginning at the minimum. Form entry: labels listed in requested order.
Result: A, B, C

----------
TARGET SYSTEM: GST tagged LXRbeta LBD (ligand binding domain) (Homo sapiens, UniProt P55055)
Sequence (P55055 222-460 limits assumed): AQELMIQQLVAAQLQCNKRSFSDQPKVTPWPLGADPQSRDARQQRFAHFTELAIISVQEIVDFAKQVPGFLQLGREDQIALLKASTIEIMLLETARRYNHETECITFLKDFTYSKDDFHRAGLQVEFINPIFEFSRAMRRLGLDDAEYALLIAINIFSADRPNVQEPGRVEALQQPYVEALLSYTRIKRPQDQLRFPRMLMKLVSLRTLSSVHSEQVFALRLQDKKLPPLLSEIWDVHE
TEST SUMMARY: LanthaScreen TR-FRET Liver X Receptor Coactivator Assay, LXR beta-LBD (co-activator recruitment; IP and % Emax relative to T0901317)
CONDITION: Inflection Point of co-activator recruitment, LXR beta-LBD, TR-FRET
MEASUREMENT NAME: EC50 (nM)

MOLECULE	NUMBER
CN(C)C(=O)c1ccc(N2CCC(CCCN(C)C(=O)[C@]3(c4ccccc4)CC(F)(F)CO3)CC2)nc1Cl	138

P: CN(C)C(=O)c1ccc(N2CCC3(CC2)CC3CCCNC(=O)C(C)(C)c2ccccc2)cc1Cl (centres unmarked)
Q: CN(C)C(=O)c1ccc(N2CCC(CCCN(C)C(=O)[C@@]3(c4ccccc4)CCCO3)CC2)nc1Cl
Request: Compare P and Q by numeric EC50 and name the larger one. Choose, then provide that item's label.
Result: P
(P: 525 nM, Q: 156 nM)

1: COc1cccc([C@@](O)(C(=O)NC[C@@H](F)CC2CCN(c3ccc(C(=O)N(C)C)c(Cl)n3)CC2)C(F)(F)F)c1
2: COc1cccc([C@@](O)(C(=O)NCC[C@H]2CC23CCN(c2ccc(C(=O)N(C)C)c(Cl)c2)CC3)C(F)(F)F)c1
Request: Compare 1 and 2 by numeric EC50 and name the larger one. Choose, then provide that item's label.
Result: 1
(1: 961 nM, 2: 284 nM)

A: COc1cccc([C@@](O)(C(=O)N(C)CCCC2CCN(c3ccc(C(=O)N(C)CCn4cncn4)c(Cl)n3)CC2)C(F)(F)F)c1
B: CN(C)C(=O)c1ccc(N2CCC3(CC2)CC3CCCN(C)C(=O)[C@](O)(c2ccccc2)C(F)(F)F)cc1Cl (some centres unmarked)
C: COc1cccc([C@@](O)(C(=O)N(C)[C@H]2C[C@@H](C3CCN(c4ccc(C(=O)N(C)C)c(Cl)n4)CC3)C2)C(F)(F)F)c1
D: COc1cccc([C@@](O)(C(=O)N(C)CCCC2CCN(c3ccc(C(=O)N4CC[C@H](CO)C4)c(Cl)n3)CC2)C(F)(F)F)c1
Request: Rank the 4 molecules: largest EC50 first, smallest last. Form entry: labels listed in requested order.
Result: B, A, C, D
(B: 136 nM, A: 83 nM, C: 53 nM, D: 11 nM)

A: CN[C@@](C(=O)N(C)CCCC1CCN(c2ccc(C(=O)N(C)C)c(Cl)n2)CC1)(c1cccc(OC)c1)C(F)(F)F
B: CN(C)C(=O)c1ccc(N2CCC(C)(CCCN(C)C(=O)[C@@]3(c4ccccc4)CCCO3)CC2)nc1Cl
Request: Compare A and B by numeric EC50 and name the larger one. Choose, then provide that item's label.
Result: A

1: CN(C)C(=O)c1ccc(N2CCC(CCCNC(=O)C(O)(c3ccccc3)C(F)(F)C(F)(F)F)CC2)cc1Cl (centres unmarked)
2: CN(C)C(=O)c1ccc(N2CCC(CCCN(C)C(=O)[C@@](O)(c3cccc(OC(F)F)c3)C(F)(F)F)CC2)nc1Cl
Request: Compare 1 and 2 by numeric EC50 and name the larger one. Choose, then provide that item's label.
Result: 1
(1: 380 nM, 2: 62 nM)

a: CCOc1cccc([C@@](O)(C(=O)N(C)CCCC2CCN(c3ccc(C(=O)N(C)C)c(Cl)n3)CC2)C(F)(F)F)c1
b: COc1cccc([C@@](O)(C(=O)N(C)C2CC(CC3CCN(c4ccc(C(=O)N(C)C)c(C)n4)CC3)C2)C(F)(F)F)c1 (single isomer, unassigned)
c: COc1cccc([C@@](O)(C(=O)Nc2ccc(C3CCN(c4ccc(C(=O)N(C)C)c(Cl)n4)CC3)cc2)C(F)(F)F)c1
Request: Order the entries by their reported EC50, beginning at the minimum. Form entry: labels listed in requested order.
Result: a, b, c
(a: 78 nM, b: 727 nM, c: 1350 nM)

I: COc1cccc(C2(C(=O)N(C)CCCC3CCN(c4ccc(C(=O)N(C)C)c(Cl)n4)CC3)CCOCC2)c1
II: COc1cccc([C@@](O)(C(=O)N(C)CC[C@H]2CC23CCN(c2ccc(C(=O)N(C)C(C)C)c(Cl)n2)CC3)C(F)(F)F)c1
Request: Compare I and II by numeric EC50 and name the larger one. Choose, then provide that item's label.
Result: I

P: COc1cccc([C@@](O)(C(=O)N(C)CCCC2CCN(c3ccc(C(N)=O)c(Cl)n3)CC2)C(F)(F)F)c1
Q: COc1cccc([C@@](O)(C(=O)N(C)CC[C@H]2CC23CCN(c2ccc(C(=O)N(C)C4CC4)c(Cl)n2)CC3)C(F)(F)F)c1
Request: Compare P and Q by numeric EC50 and name the larger one. Choose, then provide that item's label.
Result: P
